TEST_TARGET: HsKRS (Homo sapiens)
Construct: made in house
Sequence (Q15046 whole entry): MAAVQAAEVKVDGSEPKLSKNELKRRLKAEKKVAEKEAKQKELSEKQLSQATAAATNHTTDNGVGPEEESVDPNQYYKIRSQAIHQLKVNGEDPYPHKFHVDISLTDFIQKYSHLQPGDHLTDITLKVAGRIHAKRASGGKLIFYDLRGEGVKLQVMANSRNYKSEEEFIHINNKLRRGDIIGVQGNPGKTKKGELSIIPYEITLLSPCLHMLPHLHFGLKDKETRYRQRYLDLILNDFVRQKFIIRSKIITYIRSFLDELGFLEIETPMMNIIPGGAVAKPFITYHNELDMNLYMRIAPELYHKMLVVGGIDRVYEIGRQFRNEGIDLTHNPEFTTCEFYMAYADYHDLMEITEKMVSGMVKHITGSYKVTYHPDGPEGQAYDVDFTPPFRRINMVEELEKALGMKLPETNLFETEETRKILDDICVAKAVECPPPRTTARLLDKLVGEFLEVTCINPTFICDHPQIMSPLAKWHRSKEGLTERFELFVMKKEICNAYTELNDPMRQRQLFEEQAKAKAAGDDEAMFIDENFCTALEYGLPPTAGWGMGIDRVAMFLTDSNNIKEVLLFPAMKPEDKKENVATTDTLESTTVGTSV
EXPERIMENT_NOTES: HsKRS in vitro enzyme assay
Type: biochemical
MEASUREMENT_PARAMETERS: mean (95% confidence interval)
Examples of molecules with documented IC50 follow.
PROPERTY_NAME: IC50 (µM)

| MOLECULE | MEASURED_VALUE |
| --- | --- |
| O=C(NCC1(O)CCCCC1)c1cc(=O)c2cc(O)ccc2o1 | 10 |
| Nc1nc2c(c(C(F)(F)F)n1)C(=O)N(CC1CCCC(C(F)(F)F)C1)C2 (centres unmarked) | 22 |

---

EXPERIMENT_NOTES: Rat pharmacokinetics
Type: in vivo
MEASUREMENT_PARAMETERS: male, Hans Wistar, whole blood; rat PO 10 mg/kg

| COMPOUND | UNIT_TEXT | Tmax |
| --- | --- | --- |
| Nc1nc2c(c(C(F)(F)F)n1)C(=O)N(CC1CCCC(C(F)(F)F)C1)C2 (centres unmarked) | h | 2 |
| O=C(NCC1(O)CCCCC1)c1cc(=O)c2cc(O)ccc2o1 | h | 1 |

---

EXPERIMENT_NOTES: PAMPA permeability
Type: in vitro ADME
MEASUREMENT_PARAMETERS: pH 7.4
Examples of compounds with documented PAMPA Papp follow.

| COMPOUND | UNIT_TEXT | PAMPA Papp |
| --- | --- | --- |
| O=C(NCC1(O)CCCCC1)c1cc(=O)c2cc(O)ccc2o1 | nm/s | 7 |
| Cc1nc(N)nc2c1C(=O)N(C[C@@H]1CCC[C@H](C(F)(F)F)C1)C2 | nm/s | 138 |
| Nc1nc2c(c(C(F)F)n1)C(=O)N(C[C@@H]1CCC[C@H](C(F)(F)F)C1)C2 | nm/s | 193 |
| Nc1nc2c(c(C(F)(F)F)n1)C(=O)N(CC1CCCC3(CC3)C1)C2 (stereo not shown) | nm/s | 174 |

---

EXPERIMENT_NOTES: Rat pharmacokinetics
Type: in vivo
MEASUREMENT_PARAMETERS: male, Hans Wistar, whole blood; rat PO 10 mg/kg
Examples of molecules with documented Cmax follow.

| MOLECULE | Cmax, ng/mL |
| --- | --- |
| Nc1nc2c(c(C(F)(F)F)n1)C(=O)N(CC1CCCC(C(F)(F)F)C1)C2 (centres unmarked) | 30 |
| O=C(NCC1(O)CCCCC1)c1cc(=O)c2cc(O)ccc2o1 | 100 |

---

EXPERIMENT_NOTES: Biopharmaceutical Classification System (BCS) categorization
Type: physicochemical
MEASUREMENT_PARAMETERS: cut-offs solubility 100 μM, permeability 30 nm/s; Table S1 prints 1-4 for I-IV

| ENTRY_SMILES | BCS Class |
| --- | --- |
| O=C(NCC1(O)CCCCC1)c1cc(=O)c2ccc(F)c(O)c2o1 | 4 |
| COc1ccc2oc(C(=O)NCC3(O)CCCCC3)cc(=O)c2c1 | 2 |
| Cc1nc(N)nc2c1C(=O)N(C[C@@H]1CCC[C@H](C(F)(F)F)C1)C2 | 2 |
| COc1cc(NS(=O)(=O)CCN2CCCC2)c2oc(C(=O)N[C@@H](C)C3CCCCC3)cc(=O)c2c1 | 3 |
| O=C(NCC1CCCCC1)c1cc(=O)c2ccc(F)c(O)c2o1 | 1 |

Data origin: paper PMC7617456
